Taken from patent US20140228287A1.

System: M1 muscarinic receptors (Homo sapiens)
Sequence (P11229 1-460): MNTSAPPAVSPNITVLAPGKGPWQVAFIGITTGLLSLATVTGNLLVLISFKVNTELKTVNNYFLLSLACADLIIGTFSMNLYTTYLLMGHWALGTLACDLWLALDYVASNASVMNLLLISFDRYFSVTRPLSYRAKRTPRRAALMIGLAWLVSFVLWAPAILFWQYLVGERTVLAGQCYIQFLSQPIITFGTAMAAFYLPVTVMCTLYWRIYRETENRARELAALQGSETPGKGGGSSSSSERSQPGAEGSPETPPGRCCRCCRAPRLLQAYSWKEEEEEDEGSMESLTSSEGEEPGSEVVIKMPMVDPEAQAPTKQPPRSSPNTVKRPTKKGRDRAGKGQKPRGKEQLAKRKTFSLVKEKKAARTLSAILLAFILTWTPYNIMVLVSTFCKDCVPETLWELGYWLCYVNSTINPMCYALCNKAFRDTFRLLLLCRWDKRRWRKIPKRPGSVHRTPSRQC
Protocol summary: Selectivity panel, radio ligand binding assay: M1
Measurement conditions: only interaction observed in full panel of receptors, ion channels and enzymes
Structures can show the parent of a compound that is named as a salt.
Experimental endpoint: pIC50
// pIC50 is dimensionless: -log10 of concentration (M)

Measured pIC50, CC#CCn1c(N2CCC[C@@H](N)C2)nc2c1c(=O)n(Cc1ncccc1C#N)c(=O)n2C [monohydrochloride] : 5.52

====

Protocol summary: Exploratory single dose PK/PD (1.0/5.0/10.0 mg/kg) in cats: pharmacokinetics
Format: in vivo
Measurement conditions: male, domestic short hair, plasma; 10 mg/kg single oral, cat; free base by LC-MS/MS
Where a name gives a salt, the structure may show the parent alone.
Experimental endpoint: MRT (h)
Note: unit h is implicit; provide only the numeric part.

Short answer for CC#CCn1c(N2CCC[C@@H](N)C2)nc2c1c(=O)n(Cc1ncccc1C#N)c(=O)n2C [monohydrochloride] : MRT was 5.73

====

Protocol summary: Exploratory single dose PK/PD (1.0/5.0/10.0 mg/kg) in cats: pharmacokinetics
Assay type: in vivo
Measurement conditions: male, domestic short hair, plasma; 5.0 mg/kg single oral, cat; free base by LC-MS/MS
Method: […] PK data for 1-[(3-cyano-pyridin-2-yl)methyl]-3-methyl-7-(2-butyn-1-yl)-8-[3-(R)-amino-piperidin-1-yl]-xanthine free base were determined with a validated LC-MS/MS method and are summarized in Table 6.
Structures can show the parent of a compound that is named as a salt.
Experimental endpoint: AUC(0-inf) (µM·h)
# unit: µM·h | format: bare number

get_value(item= CC#CCn1c(N2CCC[C@@H](N)C2)nc2c1c(=O)n(Cc1ncccc1C#N)c(=O)n2C [monohydrochloride] , readout=AUC(0-inf)) returns 5.48

====

Protocol summary: Exploratory single dose PK/PD (1.0/5.0/10.0 mg/kg) in cats: pharmacokinetics
Assay type: in vivo
Measurement conditions: male, domestic short hair, plasma; 1.0 mg/kg single oral, cat; free base by LC-MS/MS
Counter-ions that a name gives are not always drawn.
Experimental endpoint: MRT (h)
A number alone suffices; assume h.

GET /value?item= CC#CCn1c(N2CCC[C@@H](N)C2)nc2c1c(=O)n(Cc1ncccc1C#N)c(=O)n2C [monohydrochloride] &field=MRT returns 12.3

====

Protocol summary: Exploratory single dose PK/PD (1.0/5.0/10.0 mg/kg) in cats: pharmacokinetics
Type: in vivo
Measurement conditions: male, domestic short hair, plasma; 5.0 mg/kg single oral, cat; free base by LC-MS/MS
Where a name gives a salt, the structure may show the parent alone.
Experimental endpoint: Cmax (µM)
Your answer should be a plain number; it is taken to be in µM.

Given item CC#CCn1c(N2CCC[C@@H](N)C2)nc2c1c(=O)n(Cc1ncccc1C#N)c(=O)n2C [monohydrochloride] , the value recorded as its Cmax is 0.931
